Give measured viability, T/C for each item. Keep answers brief.
Test system: 354836-022-R-J1-PDC multicell spheroid viability
Test: Anticancer human tumor 354836-022-R-J1-PDC patient-derived head and neck squamous cell carcinoma cell line growth inhibition [PI3K]
Details: second compound 10 µM; first compound 0.0316 µM; stronger effect = lower value
Numbers only, in %.

C=CC(=O)N1CCN(c2nc(=O)n(-c3c(C)ccnc3C(C)C)c3nc(-c4c(O)cccc4F)c(F)cc23)C(C)C1 (stereo not given) + Cc1nc(NC(=O)N2CCCC2C(N)=O)sc1-c1ccnc(C(C)(C)C(F)(F)F)c1: 36.8
Cn1ncnc1[C@H]1c2n[nH]c(=O)c3cc(F)cc(c23)N[C@@H]1c1ccc(F)cc1 + Cc1nc(NC(=O)N2CCCC2C(N)=O)sc1-c1ccnc(C(C)(C)C(F)(F)F)c1: 31.1
Cn1nccc1Nc1nccc(-c2ccn(C(CO)c3ccc(Cl)c(F)c3)c(=O)c2)n1 (stereo not given) + CC(Nc1ncnc2nc[nH]c12)c1cc2cccc(Cl)c2c(=O)n1-c1ccccc1: 88.3
CC(Cn1ccc(-c2ccc(C#N)c(Cl)c2)n1)NC(=O)c1cc(C(C)O)[nH]n1 (stereo not given) + CC(Nc1ncnc2nc[nH]c12)c1cc2cccc(Cl)c2c(=O)n1-c1ccccc1: 96.5

Attention now shifts to the item below.
Challenge: Write down the reported viability, T/C (system: 354836-022-R-J1-PDC multicell spheroid viability) of CC(C)NCC(C(=O)N1CCN(c2ncnc3c2C(C)CC3O)CC1)c1ccc(Cl)cc1 (stereo not given) + CC(Nc1ncnc2nc[nH]c12)c1cc2cccc(Cl)c2c(=O)n1-c1ccccc1
Response given: 87.5

----------
Tested on: 354836-022-R-J1-PDC multicell spheroid viability
Assay: Anticancer human tumor 354836-022-R-J1-PDC cell line growth inhibition [PI3K];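 note: spheroids exposed to agents for seven days before the viability read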
Settings: second compound 3.16 µM; first compound 0.00316 µM; stronger effect = lower value
reported endpoint: viability, T/C

Example cases with answers are listed next.
CCN1CCN(Cc2ccc(Nc3ncc(F)c(-c4cc(F)c5nc(C)n(C(C)C)c5c4)n3)nc2)CC1 + CC(Nc1ncnc2nc[nH]c12)c1cc2cccc(Cl)c2c(=O)n1-c1ccccc1: 97.9%
CC(=O)c1c(C)c2cnc(Nc3ccc(N4CCNCC4)cn3)nc2n(C2CCCC2)c1=O + Cc1nc(NC(=O)N2CCCC2C(N)=O)sc1-c1ccnc(C(C)(C)C(F)(F)F)c1: 67.8%

Now consider a different molecule.
Challenge: Specify measured viability, T/C for CC(C)n1nc(-c2ccc3oc(N)nc3c2)c2c(N)ncnc21 + CC(Nc1ncnc2nc[nH]c12)c1cc2cccc(Cl)c2c(=O)n1-c1ccccc1 .
Response given: 73.1%

----------
Test system: 354836-022-R-J1-PDC multicell spheroid viability
Test: Anticancer human tumor 354836-022-R-J1-PDC cell line growth inhibition [PI3K]; active = viability on the fitted dose curve at most 10% of control; inactive = the rest;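 note: spheroids exposed to agents for seven days before the viability read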
Details: second compound 0.316 µM; first compound 0.949 µM
Log the outcome using a class from YES for active, NO for inactive

Challenge: For this molecule, state the assay outcome: Cn1cnc2c(F)c(Nc3ccc(Br)cc3Cl)c(C(=O)NOCCO)cc21 + COc1c(OCCCN2CCOCC2)ccc2c3n(c(=NC(=O)c4cnc(N)nc4)nc12)CCN3
Response given: YES

Challenge: Recorded test outcome, item Cn1cnc2c(F)c(Nc3ccc(Br)cc3Cl)c(C(=O)NOCCO)cc21 + Cc1nc(NC(=O)N2CCCC2C(N)=O)sc1-c1ccnc(C(C)(C)C(F)(F)F)c1
Response given: NO

Challenge: Record request — test call for Cn1cnc2c(F)c(Nc3ccc(Br)cc3Cl)c(C(=O)NOCCO)cc21 + CC(Nc1ncnc2nc[nH]c12)c1cc2cccc(Cl)c2c(=O)n1-c1ccccc1
Response given: NO

Challenge: Hey, what did the test say about Cn1cnc2c(F)c(Nc3ccc(Br)cc3Cl)c(C(=O)NOCCO)cc21 + CC(Nc1ccc2c(c1)OCCn1cc(N3C(=O)OCC3C(F)F)nc1-2)C(N)=O ?
Response given: NO
